Catalogue of IC50 values
Biological target: Sodium- and chloride-dependent glycine transporter 1 (Homo sapiens)
Sequence (P48067 whole entry): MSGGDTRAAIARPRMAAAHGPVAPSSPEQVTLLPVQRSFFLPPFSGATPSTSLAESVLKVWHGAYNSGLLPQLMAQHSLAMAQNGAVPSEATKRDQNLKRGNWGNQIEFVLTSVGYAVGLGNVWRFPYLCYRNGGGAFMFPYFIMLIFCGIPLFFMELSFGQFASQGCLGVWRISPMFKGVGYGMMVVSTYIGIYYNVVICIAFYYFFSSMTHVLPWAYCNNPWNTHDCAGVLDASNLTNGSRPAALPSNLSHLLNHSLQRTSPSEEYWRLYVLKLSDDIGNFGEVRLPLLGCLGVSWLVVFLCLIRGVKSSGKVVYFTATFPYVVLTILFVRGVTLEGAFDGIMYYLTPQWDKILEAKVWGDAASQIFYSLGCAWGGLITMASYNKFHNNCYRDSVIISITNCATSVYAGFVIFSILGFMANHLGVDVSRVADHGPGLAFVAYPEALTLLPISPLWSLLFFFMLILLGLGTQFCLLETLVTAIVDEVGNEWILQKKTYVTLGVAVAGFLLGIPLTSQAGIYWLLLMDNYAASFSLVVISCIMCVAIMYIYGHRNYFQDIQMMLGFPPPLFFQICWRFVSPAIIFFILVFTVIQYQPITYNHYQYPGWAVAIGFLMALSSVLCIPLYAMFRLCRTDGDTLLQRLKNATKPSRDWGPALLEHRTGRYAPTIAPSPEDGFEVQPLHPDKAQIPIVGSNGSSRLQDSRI
Experiment: Inhibition of glycine transporter-1B in human JAR cells assessed as reduction in [14C]glycine uptake preincubated for 10 mins followed by [14C]glycine addition measured after 3 hrs by scintillation proximity assay
Quick note: give the figure in nM, leave out the unit.

Molecule | Readout value
CCCS(=O)(=O)N1CCN(C2(CNC(=O)c3c(Cl)cccc3OC(F)(F)F)CCC(F)(F)CC2)CC1 | 29

Record Cn1cnc(S(=O)(=O)N2CCN(C3(CNC(=O)c4ccc(Cl)cc4Cl)CCC(F)(F)CC3)CC2)c1 , field IC50: 5.29

Record CC(NC(=O)c1ccc(C(F)(F)F)cc1Cl)C1(N2CCN(S(=O)(=O)c3cn(C)nn3)CC2)CCC(F)(F)CC1.Cl (single isomer, unassigned; (+)) , field IC50: 1.06

Hello, the source for this data is ChEMBL document CHEMBL4428077, in case you need it.
